The origin of these recorded values is patent US9775844B2.

target under test: PI3K γ (Homo sapiens (Human))
assay remarks: PI3-Kinase Promega ADP-Glo Max assay
Type: biochemical
parameter: PI3K δ/PI3K γ IC50 (selectivity)

The examples below pair each entry with its known result.
Q: Observed PI3K δ/PI3K γ IC50 (selectivity) on PI3K γ (Homo sapiens (Human)) for C[C@H](NC(=O)c1c(N)nn2cccnc12)c1cc2cccc(N)c2c(=O)n1-c1ccccc1 [Compound 109] , please.
A: X (X = 10 to <50)

Q: # repeat for C[C@H](NC(=O)c1c(N)nn2cccnc12)c1cc2cccc(C#Cc3cnn(C)c3)c2c(=O)n1-c1ccc(F)cc1 [Compound 96]
A: Y (Y = 50 to <850)

Q: # repeat for CCOC(C#Cc1cccc2cc([C@H](C)NC(=O)c3c(N)nn4cccnc34)n(-c3ccccc3)c(=O)c12)OCC [Compound 34]
A: X (X = 10 to <50)

Q: # repeat for Cc1ccc(C#Cc2cccc3cc([C@H](C)NC(=O)c4c(N)nn5cccnc45)n(-c4ccccc4)c(=O)c23)cn1 [Compound 77]
A: Y (Y = 50 to <850)

Q: # repeat for C[C@H](NC(=O)c1c(N)nn2cccnc12)c1cc2cccc(C#Cc3cocn3)c2c(=O)n1-c1ccccc1 [Compound 66]
A: X (X = 10 to <50)

Next:
Q: Observed PI3K δ/PI3K γ IC50 (selectivity) on PI3K γ (Homo sapiens (Human)) for CC#Cc1cccc2nc([C@H](C)NC(=O)c3c(N)nn4cccnc34)n(-c3ccccc3)c(=O)c12 [Compound 1] , please.
A: X (X = 10 to <50)

----------
target under test: PI3K β (Homo sapiens (Human))
Sequence (P42338 whole entry): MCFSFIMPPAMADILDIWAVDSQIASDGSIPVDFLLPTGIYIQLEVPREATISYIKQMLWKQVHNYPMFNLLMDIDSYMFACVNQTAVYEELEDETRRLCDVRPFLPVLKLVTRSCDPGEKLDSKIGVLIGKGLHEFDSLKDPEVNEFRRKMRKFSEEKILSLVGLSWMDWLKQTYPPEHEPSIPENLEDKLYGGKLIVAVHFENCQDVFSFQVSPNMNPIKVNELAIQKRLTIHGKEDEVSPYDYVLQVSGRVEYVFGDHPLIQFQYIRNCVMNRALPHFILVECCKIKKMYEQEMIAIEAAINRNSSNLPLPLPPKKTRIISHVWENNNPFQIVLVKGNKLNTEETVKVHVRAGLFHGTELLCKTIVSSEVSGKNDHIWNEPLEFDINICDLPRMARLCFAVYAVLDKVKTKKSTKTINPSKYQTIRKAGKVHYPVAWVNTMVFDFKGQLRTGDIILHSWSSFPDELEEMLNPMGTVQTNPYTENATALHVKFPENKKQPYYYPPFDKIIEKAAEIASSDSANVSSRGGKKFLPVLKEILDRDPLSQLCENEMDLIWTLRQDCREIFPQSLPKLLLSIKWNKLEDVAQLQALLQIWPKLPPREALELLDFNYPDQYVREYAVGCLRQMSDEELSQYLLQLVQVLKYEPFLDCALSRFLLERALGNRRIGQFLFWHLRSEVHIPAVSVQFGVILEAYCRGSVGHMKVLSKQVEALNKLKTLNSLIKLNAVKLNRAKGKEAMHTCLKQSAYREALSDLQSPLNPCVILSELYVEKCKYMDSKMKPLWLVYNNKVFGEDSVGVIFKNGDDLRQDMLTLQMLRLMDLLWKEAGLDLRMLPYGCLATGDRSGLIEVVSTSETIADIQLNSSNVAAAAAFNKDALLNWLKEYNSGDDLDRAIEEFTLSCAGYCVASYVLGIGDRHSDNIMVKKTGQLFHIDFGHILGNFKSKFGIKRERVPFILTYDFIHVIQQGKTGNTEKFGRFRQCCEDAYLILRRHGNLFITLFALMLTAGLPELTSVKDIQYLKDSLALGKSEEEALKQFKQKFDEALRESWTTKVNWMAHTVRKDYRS
Sequence (P27986 whole entry partner): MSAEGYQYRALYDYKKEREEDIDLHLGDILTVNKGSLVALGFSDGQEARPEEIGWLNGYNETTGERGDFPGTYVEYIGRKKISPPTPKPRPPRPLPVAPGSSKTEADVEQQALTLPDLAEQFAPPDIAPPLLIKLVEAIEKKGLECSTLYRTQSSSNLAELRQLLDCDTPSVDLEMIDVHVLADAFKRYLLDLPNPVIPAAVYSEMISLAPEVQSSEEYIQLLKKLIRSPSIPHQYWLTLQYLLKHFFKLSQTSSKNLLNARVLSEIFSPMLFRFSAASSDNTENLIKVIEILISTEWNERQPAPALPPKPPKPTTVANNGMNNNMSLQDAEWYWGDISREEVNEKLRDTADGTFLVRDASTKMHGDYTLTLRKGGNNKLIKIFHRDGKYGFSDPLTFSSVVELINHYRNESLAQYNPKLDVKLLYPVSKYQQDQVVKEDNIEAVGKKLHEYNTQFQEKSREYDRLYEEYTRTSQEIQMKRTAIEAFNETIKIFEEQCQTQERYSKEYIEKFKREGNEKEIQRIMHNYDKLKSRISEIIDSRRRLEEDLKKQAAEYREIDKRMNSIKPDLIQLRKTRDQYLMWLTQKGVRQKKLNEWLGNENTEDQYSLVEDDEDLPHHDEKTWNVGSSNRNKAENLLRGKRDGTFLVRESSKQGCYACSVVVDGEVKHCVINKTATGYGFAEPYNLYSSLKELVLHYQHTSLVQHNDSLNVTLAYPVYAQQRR
parameter: IC50

The examples below pair each entry with its known result.
Q: Tell me the measured IC50 of COCC#Cc1cccc2cc([C@H](C)NC(=O)c3c(N)nn4cccnc34)n(-c3ccccc3)c(=O)c12 [Compound 12] , please.
A: 1 to 5 µM

Q: # repeat for C[C@H](NC(=O)c1c(N)nn2cccnc12)c1nc2cccc(C#Cc3cnn(C)c3)c2c(=O)n1-c1ccccc1 [Compound 21]
A: 5 to 10 µM

Next:
Q: Tell me the measured IC50 of C[C@H](NC(=O)c1c(N)nn2cccnc12)c1cc2cccc(C#Cc3cncn3C)c2c(=O)n1C1CC1 [Compound 23] , please.
A: 1 to 5 µM

Q: # repeat for C[C@H](NC(=O)c1nccnc1N)c1cc2cccc(C#Cc3cnn(C)c3)c2c(=O)n1-c1ccccc1 [Compound 29]
A: 1 to 5 µM

----------
target under test: PI3K γ (Homo sapiens (Human), UniProt P48736)
Sequence (P48736 whole entry): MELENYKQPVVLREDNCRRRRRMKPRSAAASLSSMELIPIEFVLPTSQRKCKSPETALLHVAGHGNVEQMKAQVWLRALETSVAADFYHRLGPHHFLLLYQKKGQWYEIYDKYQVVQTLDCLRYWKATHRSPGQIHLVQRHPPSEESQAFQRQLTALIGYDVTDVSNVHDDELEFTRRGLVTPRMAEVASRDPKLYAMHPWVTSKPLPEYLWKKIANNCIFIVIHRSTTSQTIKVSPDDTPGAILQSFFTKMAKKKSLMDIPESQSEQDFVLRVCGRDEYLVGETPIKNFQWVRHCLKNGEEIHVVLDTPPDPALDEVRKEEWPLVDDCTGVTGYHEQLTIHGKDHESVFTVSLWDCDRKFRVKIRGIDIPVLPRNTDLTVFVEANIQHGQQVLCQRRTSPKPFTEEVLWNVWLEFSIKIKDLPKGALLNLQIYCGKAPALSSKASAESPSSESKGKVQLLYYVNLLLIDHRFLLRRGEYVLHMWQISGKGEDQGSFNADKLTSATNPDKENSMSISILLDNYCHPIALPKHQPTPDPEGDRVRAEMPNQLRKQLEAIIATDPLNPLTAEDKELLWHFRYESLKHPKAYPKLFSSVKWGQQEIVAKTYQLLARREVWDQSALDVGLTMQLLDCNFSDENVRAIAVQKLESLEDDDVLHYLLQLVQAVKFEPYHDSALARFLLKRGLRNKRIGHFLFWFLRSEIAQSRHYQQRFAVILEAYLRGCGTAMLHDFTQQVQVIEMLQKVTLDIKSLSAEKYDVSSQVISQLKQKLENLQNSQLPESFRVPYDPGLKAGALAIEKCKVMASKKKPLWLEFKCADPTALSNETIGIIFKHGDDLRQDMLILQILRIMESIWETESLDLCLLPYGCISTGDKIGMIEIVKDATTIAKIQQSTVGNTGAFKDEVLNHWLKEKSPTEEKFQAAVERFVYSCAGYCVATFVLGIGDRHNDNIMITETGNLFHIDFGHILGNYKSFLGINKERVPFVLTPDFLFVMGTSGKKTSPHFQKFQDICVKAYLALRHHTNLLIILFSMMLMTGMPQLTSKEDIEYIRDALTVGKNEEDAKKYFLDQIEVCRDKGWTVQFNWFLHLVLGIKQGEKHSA
assay remarks: PI3-Kinase Promega ADP-Glo Max assay
Type: biochemical
parameter: PI3K δ/PI3K γ IC50 (selectivity)

Q: Tell me the measured PI3K δ/PI3K γ IC50 (selectivity) of C[C@H](NC(=O)c1c(N)nn2cccnc12)c1cc2cccc(C#CC3CCCC3)c2c(=O)n1-c1ccccc1 [Compound 64] , please.
A: W (W = >1 to <10)

Q: # repeat for C[C@H](NC(=O)c1c(N)nn2cccnc12)c1cc2cccc(C#CC3CC3)c2c(=O)n1C1CC1 [Compound 24]
A: W (W = >1 to <10)

Q: # repeat for Cc1cnc(C(=O)N[C@@H](C)c2cc3cccc(C#Cc4cnn(C)c4)c3c(=O)n2-c2ccccc2)c(N)n1 [Compound 68]
A: W (W = >1 to <10)

Q: # repeat for C[C@H](NC(=O)c1c(N)nn2cccnc12)c1cc2cccc(C#Cc3cnn(C)c3)c2c(=O)n1C1CCCCC1 [Compound 99]
A: X (X = 10 to <50)

Next:
Q: Tell me the measured PI3K δ/PI3K γ IC50 (selectivity) of Cc1cccc(-n2c([C@H](C)NC(=O)c3c(N)nn4cccnc34)cc3cccc(C#Cc4cnn(C)c4)c3c2=O)c1 [Compound 95] , please.
A: X (X = 10 to <50)

Q: # repeat for C[C@H](NC(=O)c1c(N)nn2cccnc12)c1cc2cccc(C#Cc3ccccn3)c2c(=O)n1-c1ccccc1 [Compound 32]
A: Y (Y = 50 to <850)

Q: # repeat for C[C@H](NC(=O)c1c(N)nn2cccnc12)c1cc2cccc(C#CC3CCN(C)CC3)c2c(=O)n1-c1ccccc1 [Compound 85]
A: X (X = 10 to <50)

Q: # repeat for Cc1ccnc2c(C(=O)N[C@@H](C)c3cc4cccc(C#Cc5cnn(C)c5)c4c(=O)n3-c3ccccc3)c(N)nn12 [Compound 102]
A: X (X = 10 to <50)

Q: # repeat for C[C@H](NC(=O)c1c(N)nn2cccnc12)c1cc2cccc(C#Cc3cccnc3)c2c(=O)n1-c1ccccc1 [Compound 17]
A: Y (Y = 50 to <850)

----------
Observed IC50 for PI3K β (Homo sapiens (Human)), reported per entry below.

The examples below pair each entry with its known result.
Q: Observed IC50 on PI3K β (Homo sapiens (Human)) for Cc1ccn2nc(N)c(C(=O)N[C@@H](C)c3cc4cccc(C#Cc5cnn(C)c5)c4c(=O)n3-c3ccccc3)c2n1 , please.
A: 1000 to 5000 nM

Q: # repeat for C[C@H](NC(=O)c1c(N)nn2cccnc12)c1cc2cccc(C#CC3CCOC3)c2c(=O)n1-c1ccccc1 (stereo partly drawn)
A: 5000 to 10000 nM

// switching to the query compound
Q: Observed IC50 on PI3K β (Homo sapiens (Human)) for C#Cc1cccc2nc([C@H](C)NC(=O)c3c(N)nn4cccnc34)n(C)c(=O)c12 , please.
A: 500 to 1000 nM

----------
Observed pIC50 for UniProtKB P48736, reported per entry below.
pIC50: −log10 of the molar value.

The examples below pair each entry with its known result.
Q: Observed pIC50 on UniProtKB P48736 for C[C@H](NC(=O)c1c(N)nn2cccnc12)c1nc2cccc(C#Cc3cnn(C)c3)c2c(=O)n1C , please.
A: 5.30 to 6.00

Q: # repeat for CC[C@H](NC(=O)c1c(N)nn2cccnc12)c1cc2cccc(C#Cc3cnn(C)c3)c2c(=O)n1-c1ccccc1
A: 7.00 to 9.00

Q: # repeat for Cn1cc(C#Cc2cccc3cc(CNC(=O)c4c(N)nn5cccnc45)n(-c4ccccc4)c(=O)c23)cn1
A: 5.30 to 6.00

Q: # repeat for C[C@H](NC(=O)c1c(N)nn2cccnc12)c1cc2cccc(C#CCN3CCN(C)CC3)c2c(=O)n1-c1ccccc1
A: 6.30 to 7.00

Q: # repeat for C[C@H](NC(=O)c1nccnc1N)c1cc2cccc(C#Cc3cnn(C)c3)c2c(=O)n1-c1ccccc1
A: 6.30 to 7.00

Q: # repeat for C[C@H](O)C#Cc1cccc2cc([C@H](C)NC(=O)c3c(N)nn4cccnc34)n(-c3ccccc3)c(=O)c12
A: 7.00 to 9.00

Q: # repeat for Cc1ccc(-n2c([C@H](C)NC(=O)c3c(N)nn4cccnc34)cc3cccc(C#Cc4cnn(C)c4)c3c2=O)cc1
A: 6.30 to 7.00

Q: # repeat for Cc1scnc1C#Cc1cccc2cc([C@H](C)NC(=O)c3c(N)nn4cccnc34)n(-c3ccccc3)c(=O)c12
A: 6.30 to 7.00

Q: # repeat for C[C@H](NC(=O)c1c(N)nn2cccnc12)c1cc2cccc(C#CC3CCCCC3)c2c(=O)n1-c1ccccc1
A: 5.30 to 6.00

Q: # repeat for C[C@H](NC(=O)c1c(N)nn2cccnc12)c1cc2cccc(C#CC=O)c2c(=O)n1-c1ccccc1
A: 7.00 to 9.00

Next:
Q: Observed pIC50 on UniProtKB P48736 for Cc1cc(C)n2nc(N)c(C(=O)N[C@@H](C)c3cc4cccc(C#Cc5cnn(C)c5)c4c(=O)n3-c3ccccc3)c2n1 , please.
A: 6.30 to 7.00

Q: # repeat for C[C@H](NC(=O)c1c(N)nn2cccnc12)c1cc2cccc(C#CC3CCN(S(C)(=O)=O)CC3)c2c(=O)n1-c1ccccc1
A: 6.00 to 6.30

Q: # repeat for CCOC(C#Cc1cccc2cc([C@H](C)NC(=O)c3c(N)nn4cccnc34)n(-c3ccccc3)c(=O)c12)OCC
A: 6.00 to 6.30

Q: # repeat for C#Cc1cccc2nc([C@H](C)NC(=O)c3nccnc3N)n(-c3ccc(F)cc3)c(=O)c12
A: 7.00 to 9.00

Q: # repeat for C[C@H](NC(=O)c1c(N)nn2cccnc12)c1cc2cccc(C#Cc3ccncc3)c2c(=O)n1-c1ccccc1
A: 6.30 to 7.00

Q: # repeat for Cc1cnc(C(=O)N[C@@H](C)c2cc3cccc(C#Cc4cnn(C)c4)c3c(=O)n2-c2ccccc2)c(N)n1
A: 5.30 to 6.00

Q: # repeat for CC(=O)N1CCC(C#Cc2cccc3cc([C@H](C)NC(=O)c4c(N)nn5cccnc45)n(-c4ccccc4)c(=O)c23)CC1
A: 6.30 to 7.00

----------
Documented pIC50 across a set of molecules
target under test: PI3K-δ in RAJI cells (Homo sapiens (Human))
Sequence (O00329 whole entry, one chain of several): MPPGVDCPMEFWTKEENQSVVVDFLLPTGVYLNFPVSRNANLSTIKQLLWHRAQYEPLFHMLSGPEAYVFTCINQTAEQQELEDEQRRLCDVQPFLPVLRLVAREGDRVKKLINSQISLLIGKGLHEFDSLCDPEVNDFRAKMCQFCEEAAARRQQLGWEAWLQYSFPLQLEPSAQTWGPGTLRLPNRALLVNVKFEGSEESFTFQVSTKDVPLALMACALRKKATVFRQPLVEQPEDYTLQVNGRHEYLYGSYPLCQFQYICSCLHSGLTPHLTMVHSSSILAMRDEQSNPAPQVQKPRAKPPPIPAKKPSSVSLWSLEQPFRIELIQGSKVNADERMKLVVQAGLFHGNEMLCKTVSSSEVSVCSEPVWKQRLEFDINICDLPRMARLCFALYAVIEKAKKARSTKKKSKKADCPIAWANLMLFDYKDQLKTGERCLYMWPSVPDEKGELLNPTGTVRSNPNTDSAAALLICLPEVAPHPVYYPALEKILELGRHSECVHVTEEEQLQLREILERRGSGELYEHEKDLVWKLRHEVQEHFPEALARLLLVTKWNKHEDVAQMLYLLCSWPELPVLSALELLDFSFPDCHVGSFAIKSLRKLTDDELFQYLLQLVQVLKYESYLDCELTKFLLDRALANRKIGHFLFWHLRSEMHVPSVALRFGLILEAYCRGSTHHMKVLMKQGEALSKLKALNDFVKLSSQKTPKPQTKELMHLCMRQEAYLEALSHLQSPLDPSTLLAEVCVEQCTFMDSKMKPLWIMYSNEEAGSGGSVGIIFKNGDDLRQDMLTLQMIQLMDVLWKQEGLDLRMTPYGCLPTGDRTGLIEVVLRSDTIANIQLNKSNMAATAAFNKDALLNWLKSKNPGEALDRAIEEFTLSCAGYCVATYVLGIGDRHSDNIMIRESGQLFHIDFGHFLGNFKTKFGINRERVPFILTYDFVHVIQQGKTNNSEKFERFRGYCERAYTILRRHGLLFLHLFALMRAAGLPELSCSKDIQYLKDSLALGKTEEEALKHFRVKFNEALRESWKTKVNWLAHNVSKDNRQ
assay remarks: RAJI p110 δ assay (PI3K-δ selective cellular assay, phospho-AKT)
Assay type: cell-based
test parameters: phospho-AKT; read-out: RAJI p110 δ assay IC50
pIC50: −log10 of the molar value.

The examples below pair each entry with its known result.
Q: Tell me the measured pIC50 of C[C@H](NC(=O)c1c(N)nn2cccnc12)c1cc2cccc(C#CC3CC3)c2c(=O)n1C1CC1 [Compound 24] , please.
A: 6.30 to 7.00

Q: # repeat for CC(C)C#Cc1cccc2cc([C@H](C)NC(=O)c3c(N)nn4cccnc34)n(-c3ccccc3)c(=O)c12 [Compound 2]
A: 6.00 to 6.30

Next:
Q: Tell me the measured pIC50 of C#Cc1cccc2nc([C@H](C)NC(=O)c3c(N)nn4cccnc34)n(C)c(=O)c12 [Compound 48] , please.
A: 7.00 to 9.00

Q: # repeat for Cc1c(C#Cc2cccc3nc([C@H](C)NC(=O)c4c(N)nn5cccnc45)n(-c4ccccc4)c(=O)c23)cnn1C [Compound 88]
A: 6.30 to 7.00

Q: # repeat for Cc1ccc(C#Cc2cccc3cc([C@H](C)NC(=O)c4c(N)nn5cccnc45)n(-c4ccccc4)c(=O)c23)cn1 [Compound 77]
A: 6.00 to 6.30
